target: human MCH receptor expressed from the open reading frame cDNA SEQ. ID. NO. 1 in 293-AEQ17 cells (human, UniProt Q99705 1-353); test: cell-based or functional assay
Sequence (Q99705 whole entry): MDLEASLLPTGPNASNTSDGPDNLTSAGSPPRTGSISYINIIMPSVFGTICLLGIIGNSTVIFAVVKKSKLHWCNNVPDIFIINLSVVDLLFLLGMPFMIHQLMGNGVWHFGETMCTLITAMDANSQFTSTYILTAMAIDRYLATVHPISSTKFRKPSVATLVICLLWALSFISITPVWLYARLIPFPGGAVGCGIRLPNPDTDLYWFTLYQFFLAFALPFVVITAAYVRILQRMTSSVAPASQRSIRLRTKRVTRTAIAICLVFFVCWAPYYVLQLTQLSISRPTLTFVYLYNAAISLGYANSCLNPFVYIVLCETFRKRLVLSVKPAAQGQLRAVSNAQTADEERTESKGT
Bridges are numbered along the chain shown (N, C = ends). Where no end group is shown, it is not given here. [ ]: non-standard residue; d: D form. Ava = NCCCCC(=O)O
valueType: Activation % (%)

binder	valueType	units	measuredResult
DFDMLRCMLGRVYRPCWQV (disulfide 7-16) [mammalian MCH (SEQ. ID. NO. 11)]	Activation %	%	100
RCXLGRVYRPC (norleucine at position 8; N-terminal acetyl, C-terminal amide, Cys-Cys disulfide as in SEQ. ID. NO. 7, ID; NO; 7 peptide; MCH position numbering) [MCH analog SEQ. ID. NO. 77 (Nle^8)]	Activation %	%	105
Ac-RCM[Ava][Ava]RVY[Ava][Ava]C-NH2 (disulfide 2-11; not fully specified) [MCH analog SEQ. ID. NO. 76 (Ava^9,10,Ava^14,15)]	Activation %	%	3
Ac-RCMLGRVY[Ava][Ava]C-NH2 (disulfide 2-11, ID; NO; 7 peptide; MCH position numbering) [MCH analog SEQ. ID. NO. 72 (Ava^14,15)]	Activation %	%	75
Ac-RCMLGRVYRPC-NH2 (disulfide 2-11 (inferred), Corresponds to MCH positions 6-16; also called ID; NO; 7 MCH analog) [truncated MCH analog SEQ. ID. NO. 7: Ac-Arg-Cys-Met-Leu-Gly-Arg-Val-Tyr-Arg-Pro-Cys-amide]	Activation %	%	99
